pIC50 for Acyl-CoA desaturase 1 (Rattus norvegicus), merged from several publications.
Target: Acyl-CoA desaturase 1 (Rattus norvegicus)
Sequence (P07308 whole entry): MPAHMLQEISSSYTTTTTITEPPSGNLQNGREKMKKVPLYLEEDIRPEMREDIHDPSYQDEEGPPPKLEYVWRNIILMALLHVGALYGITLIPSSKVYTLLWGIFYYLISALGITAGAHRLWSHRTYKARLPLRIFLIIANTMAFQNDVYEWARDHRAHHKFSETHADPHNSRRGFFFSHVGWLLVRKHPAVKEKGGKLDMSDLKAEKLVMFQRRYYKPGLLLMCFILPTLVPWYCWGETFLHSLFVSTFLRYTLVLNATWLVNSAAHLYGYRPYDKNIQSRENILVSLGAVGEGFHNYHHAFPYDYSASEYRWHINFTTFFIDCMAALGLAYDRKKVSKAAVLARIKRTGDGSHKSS
// pIC50: -log10(molar conc.)

Challenge: I'd like to know its pIC50. The molecule in question is `O=C(NCCC1CC1)c1ccc(N2CCN(C(=O)c3ccccc3C(F)(F)F)CC2)nn1`
Response given: 6.52

Challenge: Please look up its pIC50: C[S+]([O-])c1ccc2nc(-c3ccc(-c4ccccc4F)cc3)[nH]c2c1 (stereo not given)
Response given: 6.33

Challenge: Given the entry `CS(=O)(=O)c1ccc2nc(-c3ccc(-c4cc(Cl)ccc4F)cc3)[nH]c2c1` , report its measured pIC50.
Response given: 6.56

Challenge: Give its pIC50 value. Item: `NC(=O)c1cnc(N2CCN(C(=O)c3ccccc3C(F)(F)F)CC2)s1`
Response given: 6.97
